system: PPARg:RXRa IVT, anti-PPARg (NR concentration 270 nM, RXRa partner concentration 90 nM); experiment: PBM binding z-score (relative to random genomic background probes); higher = stronger binding; sequences stand for … in GC…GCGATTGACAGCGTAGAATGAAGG
PARAMETER: PBM binding z-score
// response body must contain only the number

Q: Look up and state reported PBM binding z-score for TCTGCTAGGTCAGTTGGTCAGGTAACGAGCTGCC
Result: 3.24

Q: Look up and state reported PBM binding z-score for GCTTACGGGTCTAAGGTTATAGCATGAATAGAAT
Result: 0.754

Q: Look up and state reported PBM binding z-score for AATACAGGGTCATCGTAGACCAGAGTACGCACAG
Result: 4.37

Q: Look up and state reported PBM binding z-score for CCTACTGGGCCGTCAGGTCATTGATATCAACGTT
Result: 2.14

Q: Look up and state reported PBM binding z-score for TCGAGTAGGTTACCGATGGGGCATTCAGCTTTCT
Result: 2.48

Q: Look up and state reported PBM binding z-score for CCTTACGGGTCACTGTCAGGTTATAGCATTTGGA
Result: 3.7

Q: Look up and state reported PBM binding z-score for GCAGACAGGTGAAACGCAAGTAACTCAGGGTGGC
Result: 0.495

Q: Look up and state reported PBM binding z-score for CCGAGGAGGTTATGGGGCATTCAGGCAACGGTGA
Result: 1.61

Q: Look up and state reported PBM binding z-score for CCAACGAGGGCATGAGTTGATAGCAAATGCCGAT
Result: 1.08

Q: Look up and state reported PBM binding z-score for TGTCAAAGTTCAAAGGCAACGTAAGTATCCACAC
Result: 3.82

Q: Look up and state reported PBM binding z-score for CGAACTAGGACATTGACAGGACAGTGAATAGTAA
Result: 3.36

Q: Look up and state reported PBM binding z-score for GGAACGAGGGCATTCGAGTTGATAGCGTGGCGAT
Result: 2.02

----------
tested on: VDR homodimer (NR concentration 270 nM); assay: PBM binding z-score (relative to random genomic background probes); higher = stronger binding; sequences stand for … in GC…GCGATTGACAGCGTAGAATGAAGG
We use 1 as the dividing line for PBM binding z-score: on or above the line is T, below is F.

Q: Quick check: does GCAACGAGGGCAAGTTGATAGCAGAGTTTGATGG have PBM binding z-score greater than or equal to 1?
Result: T

Q: Quick check: does ATCGAAAGGTCGTGAGTTGAGTATACAGAAAGGC have PBM binding z-score greater than or equal to 1?
Result: T

Q: Quick check: does CGAACTAGGTCAGAACAGGACCGTGAAGGATGAT have PBM binding z-score greater than or equal to 1?
Result: F

Q: Quick check: does CCTACTGGGCCAAAGGTCATTCATTCCAATGCTC have PBM binding z-score greater than or equal to 1?
Result: T

Q: Quick check: does CCGACTGGGCCACGAAAGGTCATTGATTCAGTGA have PBM binding z-score greater than or equal to 1?
Result: T

Q: Quick check: does ATCGCAAGGTCGACGAGGTGAGTATACACCGTTT have PBM binding z-score greater than or equal to 1?
Result: T

Q: Quick check: does CAAACTAGGTCACAGAGGTCAAATTCCGTGCGTA have PBM binding z-score greater than or equal to 1?
Result: T

Q: Quick check: does CCTCGGAGGACAGAAGGTCAGAACTGTCCGCTTT have PBM binding z-score greater than or equal to 1?
Result: F

Q: Quick check: does CGAACTGGGTCAGAACAGGACAGTGAAGGATGAT have PBM binding z-score greater than or equal to 1?
Result: F

Q: Quick check: does ATGTCTAGGTAAAGTTCAGTGAAAGATCGATAGA have PBM binding z-score greater than or equal to 1?
Result: T

Q: Quick check: does TTATATAGGTAAACAGGTGAAAGTCCGTAAGTTA have PBM binding z-score greater than or equal to 1?
Result: F

Q: Quick check: does TAGTCTAGGTCATGGGCCAGTATACCACGCGAAC have PBM binding z-score greater than or equal to 1?
Result: F

Q: Quick check: does AGAATGAGGTTACCAAAGATCAGGAAAACGCTTG have PBM binding z-score greater than or equal to 1?
Result: F

Q: Quick check: does TCAAGTTGGTCACGGAGGTCACACACGACGGGTA have PBM binding z-score greater than or equal to 1?
Result: T

Q: Quick check: does CCTCGGAGGACAGAAGATCAGAGCTGTCCGCTTT have PBM binding z-score greater than or equal to 1?
Result: F

Q: Quick check: does GCTCGGAGGACAAGGTCAGAGATTTGTCCGTAGA have PBM binding z-score greater than or equal to 1?
Result: F

Q: Quick check: does GATAGCAGGCCATTTGGGTCACTCAATGACGGGC have PBM binding z-score greater than or equal to 1?
Result: F

Q: Quick check: does CAGCCTAGGTCAGGGCCAATATAGGAGGAACGTT have PBM binding z-score greater than or equal to 1?
Result: F

Q: Quick check: does GGAACGAGGGCCTTCGAGTTGATAGCATGGCGAT have PBM binding z-score greater than or equal to 1?
Result: F

Q: Quick check: does ACTAGCAGGCCAAGGGTCAGTCAAGATTAGTCCG have PBM binding z-score greater than or equal to 1?
Result: F

Q: Quick check: does CCTACTGGGCCGAAAAGGTCATTGATGCCGATAA have PBM binding z-score greater than or equal to 1?
Result: T

Q: Quick check: does TCATATAGGTAAACGGTGAAAGTCGGTGTGGTAA have PBM binding z-score greater than or equal to 1?
Result: F

Q: Quick check: does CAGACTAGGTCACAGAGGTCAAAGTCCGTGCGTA have PBM binding z-score greater than or equal to 1?
Result: T

Q: Quick check: does TCATATAGGTAAAAGGTGAATGTCGGTGTGGTAA have PBM binding z-score greater than or equal to 1?
Result: F

Q: Quick check: does CCTTACGGGGCACTCCAGGTTATAGCATCGGAGT have PBM binding z-score greater than or equal to 1?
Result: F

Q: Quick check: does CTCGAAAGGTCGTGCTCAGGTAAGTATACCAAAC have PBM binding z-score greater than or equal to 1?
Result: T
